# Tested on: MDA-N
# EXPERIMENTAL_PROTOCOL: NCI tumour cell line growth inhibition, 48 h
The following compounds are listed with their measured TGI values.

Examples with their reported TGI follow.
C/C(=C\COc1ccc2ccc(=O)oc2c1)CCC(=O)C(C)(C)O; > 100 µM
N#CC(NNC(=O)c1c(Cl)c(Cl)c(Cl)c(Cl)c1-c1nc2ccc(C(=O)c3ccccc3)cc2[nH]1)c1cccc(Oc2ccccc2)c1 (stereo unspecified); 49.6 µM
CCOC(=O)CCC1(C(=O)O[C@@H]2C[C@H](C)CC[C@H]2C(C)C)CCCCC1=O (stereo partly specified); > 100 µM
Cc1cc(S(=O)(=O)Nc2n[nH]c(N)n2)c(S)cc1Cl; > 10 µM
Cc1cnc2[nH]c(-c3sccc3C)cc(=O)c2c1; 2.96 µM

// next item, TGI requested
Report measured TGI; entry is CC1=CCC(=O)[C@]2(C)C(CC(=O)O)[C@]3(C)C4=C(C)C(c5ccoc5)C[C@@H]4O[C@@H]3[C@H](O)[C@@H]12 (stereo partly specified) > 100 µM

---

# Tested on: SF-295 CNS
# EXPERIMENTAL_PROTOCOL: NCI tumour cell line growth inhibition, 48 h
This listing pairs compounds with measured TGI.

Worked examples, 5 compounds total:
O=c1[nH]c(=O)c2c([nH]1)[nH]c1ccccc12; > 100 µM
CC(=O)O[C@H]1CC[C@]2(C=O)[C@H]3CC[C@]4(C)[C@@H](C5=CC(=O)OC5)CC[C@]4(O)[C@@H]3CC[C@]2(O)C1; 0.853 µM
CC1[C@@H]2C[C@@H]3O[C@@]34[C@H]3CCC5Cc6nc7c(nc6C[C@@]5(C)C3(O)CC(=O)[C@@]24CO[C@]12OC(C)(C)CC2O)CC1CC[C@@H]2C3=C[C@H]4O[C@@]5(O[C@@](C)(CO)C[C@@H]5O)C(C)[C@@]4(O)[C@]3(C)[C@@H](O)CC2[C@]1(C)C7 (some centres not stated); 0.0164 µM
O=C(/C=C(/C=C/c1csc2ccccc12)OB(F)F)/C=C/c1csc2ccccc12; > 50 µM
Nc1ccc(C(=O)N/C(=C\c2ccc3c(c2)OCO3)c2nc3ccc4c(c3[nH]2)C(=O)c2ccccc2C4=O)cc1; > 100 µM

Look up TGI of C/C(=C\c1ccccc1)n1c(=O)cc(C)n1C and report it. > 100 µM

---

# System: BT-549 breast
# EXPERIMENTAL_PROTOCOL: NCI tumour cell line growth inhibition, 48 h; in the data active means GI50 below about 0.43 µM; inactive means the rest
*1 amine or outer side, *2 acyl side, *3 side chain or, on linkers, in order; H or OH if unused. Where a SMILES comes first, the peptide text is derived from it. [ ]: non-standard residue; d: D form. The star is where a group is joined. X12 = NCCCCC(N[*:1])C(=O)CN1CCCC1C(=O)[*:2]; Pentadecanoyl = CCCCCCCCCCCCCCC(=O)*
Respond with a class label; see class 1 = active, class 0 = inactive

Cc1c(-c2ccnc(N)n2)c2c(n1-c1ccccc1)C(=O)c1ccccc1C2=O; class 0
COc1ccc2c(c1)/C(=N/OC(C)=O)c1c-2c(Nc2ccc(/C(C)=N/OC(C)=O)cc2)nc2ccccc12; class 0
CO[C@H]1/C=C/C=C/C=C/C[C@H](OC(=O)[C@@H](C)NC(=O)C2CCCCC2)[C@H](C)[C@@H](O)/C(C)=C\CCC2=CC(=O)C=C(NC(=O)C1)C2=O; class 1
O=C1c2ccccc2-c2c1c1ccccc1c(=O)n2CCCNCCO; class 0

Query: recorded result category for S=C1NC2=C(CCOc3c2ccc2ccccc32)C(c2ccc(Cl)cc2)N1 (stereo unspecified) in this test class 0

Recorded test call requested for CCCCCCCCCCCCCCC(=O)NC(CCCCN)C(=O)CN1CCCC1C(=O)NCC(=O)NC(Cc1ccccc1)C(=O)N1CCCC1C(=O)NC(CO)C(=O)NC(Cc1ccc(O)cc1)C(=O)NC(CCCCN)C(=O)NC(CC(C)C)C(=O)NC(CCCN=C(N)N)C(=O)N1CCCC1C(=O)NCC(N)=O (stereo unspecified) (Pentadecanoyl-[X12]GFPSYKLRPG-NH2; configuration not given here) class 0

---

# Tested on: SF-295 CNS
# EXPERIMENTAL_PROTOCOL: NCI tumour cell line growth inhibition, 48 h
Overview of reported TGI across a group of compounds:
Your answer is read as µM, so omit the unit and give the number.

Observe how each entry below is paired with its result.
O=C(CSCC(=O)N/N=C\c1cccc(Br)c1)N/N=C\c1cccc(Br)c1; 29.9
NC(=S)c1cn(C2OC(CO)C(O)C2O)c2ncnc(N)c12 (centres undefined); 3.07

Here's the next entry for you.
Tell me its TGI given COc1cc(C2CC(c3cc(Cl)c(C)cc3O)=NN2c2ccc(S(N)(=O)=O)cc2)cc(OC)c1OC (centres undefined) as the entry. 3.96

---

# Test system: NCI-H522 lung
# EXPERIMENTAL_PROTOCOL: NCI tumour cell line growth inhibition, 48 h
QUANTITY_MEASURED: TGI (µM)
Write it as a number; the unit µM goes unstated.

Illustrative cases are given below, each with its answer.
CCOC(=O)c1sc2[n+](c1C)C(=O)/C(=C/c1ccccc1Cl)S2; 7.65
O=C1c2ccccc2-c2c1c1ccccc1c(=O)n2CCCNCCO; 4.33
CCN(Cc1cccc(C)c1)c1ccc(CO)c(Cl)c1; 27.5
CN(C)CCSc1nccc(-c2ccc(-c3ccnc(SCCN(C)C)n3)s2)n1; 33.5
c1ccc2c(c1)[C@@H]1O[C@@H]1[C@@]13O[C@@]21[C@H]1O[C@H]1c1ccccc13; 25.4
Fc1ccc(-c2ncn(C3CCNCC3)c2-c2ccnc(Oc3ccc(Oc4ccccc4)cc3)n2)cc1; 8.7

Determine from records and report TGI for C=C1C(=O)O[C@H]2[C@H]1CC/C(COC(=O)c1ccc(Br)cc1)=C\CC[C@@]1(C)O[C@@H]21 2.8

Kindly indicate its recorded TGI. Item: O=C(CN1CCN(c2cc3c(cc2F)c(=O)c(C(=O)O)cn3C2CC2)CC1)Nc1ccc(C(=O)/C=C/c2ccccc2)cc1 7.78

---

Below, each entry is listed alongside its reported TGI.
# Test system: COLO 205 colon
# EXPERIMENTAL_PROTOCOL: NCI tumour cell line growth inhibition, 48 h
Field format: number, assumed µM, no unit text.

Answered examples (3):
O=C1c2ccccc2-c2c1c1ccccc1c(=O)n2CCCNCCO; 3.75
COc1ccc(C2C3=C(COC3=O)N(CCO)c3cc4c(cc32)CCC4)cc1OC (stereo unspecified); 7.71
O=C(Nc1ccc(Oc2cccc(Cl)c2)c(Cl)c1)c1cccnc1; 8.1

Give me measured TGI, please, for this molecule: Fc1ccc(-c2ncn(C3CCNCC3)c2-c2ccnc(Oc3ccc(Oc4ccccc4)cc3)n2)cc1 6.23

For the molecule CCOC(=O)c1sc2[n+](c1C)C(=O)/C(=C/c1ccccc1Cl)S2 , give its reported TGI. 9.85

Input CCn1c(-c2nonc2N)nc2c(C#CC(C)(C)O)ncc(OCC3CCNCC3)c21 , output reported TGI. 15.2

Entry CN(C)CC(C)(C)C(=O)/C=C/c1ccccc1 needs its TGI filled in; supply it. 26.2

Note down TGI recorded for C=C(C)[C@@H]1CC[C@@H]2C(=CC[C@]3(C)C([C@H](C)CC/C=C(/C)C(=O)O)CC[C@@]23C)[C@@]1(C)CCC(=O)O (stereo partly specified) 39.9

Using the record for C/C(CC(=O)Nc1cc(Cl)c(Cl)cc1Cl)=N\NS(=O)(=O)c1ccc(C)cc1 , state its measured TGI. 61.1

Fill in reported TGI for this entry: Cc1cccc(Cc2cnc(NC(=O)/C=C/c3ccco3)s2)c1 1.23

Given the molecule COc1cc2cc(Oc3ccc(NC(=O)Nc4cc(C(F)(F)F)cc(C(F)(F)F)c4)cc3)c(C)nc2cc1OCCN1CCCCC1 , write its reported TGI. 3.62

Give reported TGI value for COc1cccc(C2N3CCCCC3[C@@H]3c4[nH]c5ccccc5c4CCN23)c1OC (stereo partly specified) 29.2

Give reported TGI value for c1ccc2c(c1)[C@@H]1O[C@@H]1[C@@]13O[C@@]21[C@H]1O[C@H]1c1ccccc13 32.8

Specify TGI for CCN(CC)c1ccc(/C=C2/NC(=O)NC2=O)cc1 and stop. 23.6

Consider the molecule CC(C(=O)C(C)O[Si](c1ccccc1)(c1ccccc1)C(C)(C)C)=P(c1ccccc1)(c1ccccc1)c1ccccc1 (stereo unspecified) and give its recorded TGI. 3.45

Give the reported value of TGI for this record: Cc1cncc2cccc(S(=O)(=O)N3CCCNC[C@@H]3C)c12 18.8

Answer with reported TGI of N#Cc1nc(-c2ccccn2)c(-c2ccccn2)nc1C#N 10.6

Dear colleague, please send me the reported TGI for CC(=O)O[C@H]1CC[C@]2(C=O)[C@H]3CC[C@]4(C)[C@@H](C5=CC(=O)OC5)CC[C@]4(O)[C@@H]3CC[C@]2(O)C1 when you can. 1.64

Provide TGI value for the following molecule: Clc1ccc(C2=NNC(c3cccc(Cl)c3)C2)cc1 (stereo unspecified) 29.3

Find the measured TGI of O=C(Nc1ccc(I)cc1F)c1cc(F)ccc1O and report it. 15.6

Give the reported TGI for this molecule. CC(C)(CO)Nc1c(O)c2c(c(O)c1Cl)C(=O)C=CC2=O 2.56
